// data source = patent US20020052343A1

target: human Urokinase (Homo sapiens)
measurementType: Ki (µM)
Give the value, in units of µM, as a plain number.

{"columns": ["compound", "unitInfo", "Ki"],
 "data": [
  ["CC(C)c1cc(C(=O)Nc2ccc(C(=N)N)cc2)c(O)c(C(C)C)c1 [compound 24]", "µM", 2.9],
  ["N=C(N)Nc1ccc(NC(=O)c2cc3ccccc3cc2O)cn1 [Ex. 201]", "µM", 0.326],
  ["Cc1cc(Br)c(O)c(C(=O)Nc2ccc(C(=N)N)cc2)c1 [Ex. 5]", "µM", 0.29]
]}

Okay, next one:
// fetch Ki given entry Cc1cc(I)c(O)c(C(=O)Nc2ccc(NC(=N)N)nc2)c1 [Ex. 205]
5.5
